Biological target: HIV-1 Env of Q168.a2 (HIV-1)
Assay: cell-based or functional assay
Attribute: neutralization IC50

For orientation, consider the following solved cases.
binder	neutralization IC50
CAP256-VRC26.10 (antibody, V domains shown) VH: QAILVESGGGVVQPGRSLRLSCAASQFTFSGHGLHWVRQAPGKGLEWVASISFAGTKMDYADSVKGRFAISRDNSKNTLYLQMNSLRVEDTALYYCAKDMREYECEYWTSDYYDFGRPQPCIDRRGVVGIFDMWGQGTMVTVST VL: QSVLTQPPSVSAAPGQKVTISCSGSSSNIGDNYVSWYQHLPGTAPKLLIYENTRRPSGIPDRFSGSKSGTSATLAITGLQTGDEADYYCGTWDVRPNRGAVFGTGTKVTVLG	> 50 µg/mL
CAP256-VRC26.04 (antibody, V domains shown) VH: EVQLVESGGGVVQPGKSLRLSCAASQFSFNRYGMHWVRQAPGKGLEWVAAISYDGTDKYHADKVWGRFTISRDNSKNTLYLQMNSLRAEDTALYYCAKDLREDECEEWWSDYYDFGKQLPCRKSRGVAGIFDKWGQGTMVIVSS VL: QPVLTQPPSVSAAPGQKVTISCSGSSSNIGNNFVSWYQQRPGTAPSLLIYETNKRPSGIPDRFSGSKSATSATLAITGLQTGDEADYYCATWAASLTSARVFGTGTKVIVSG	> 50 µg/mL
CAP256-VRC26.01 (antibody, V domains shown) VH: EVQVVESGGGVVQPGRSLRLSCTASGFTFSNFAMGWVRQAPGKGLEWVAFISSDGSNKNYGDSVKGRFTISRDNSKNTVFLQMNSLRVEDTALYYCAKDVGDYKSDEWGTEYYDISISYPIQDPRAMVGAFDLWGQGTMVTVSP VL: QSVLTQPPSVSAAPGQKVTISCSGSSSTIGNNYVSWYRLLPGTAPKLLIYKNDNRPSGIPDRFSGSKSGTSATLGISGLQTGDEADYYCGTWDTSLSGGGVFGTGTKVTVLG	> 50 µg/mL
CAP256-VRC26.02 (antibody, V domains shown) VH: EVQLVESGGGVVQPGRSLRLSCAASQFSFGNYGMHWVRQAPGKGLEWVAAISFAGTKTNYADSVKGRFTISRDNSKNTVYLQMNSLRAEDTALYFCAKDIREYECEYWTSDYYDFGRPQPCIDSRGVVGTFDVWGQGTMVTVSS VL: QSVLTQPPSVSAAPGQKVTISCSGSNSNIGNKDVSWYQQIPATAPKLLIYENNKRPSGISDRFSGSKSGTSATLAITGLQTGDEADYYCATWDGRVSVIGTGTNVIVLG	> 50 µg/mL
CAP256-VRC26.06 (antibody, V domains shown) VH: EVQLIESGGGVVQPGRSLRLSCGASGFSFNNYGMHWVRQAPGKGLEWVAGISFAGIKKYYGTSVKGRFTISRDNSKNNFYLQMNSLRVEDTALYYCARDLRELECEEWTLYNYYDFGSRGPCVDPRGVAGSFDVWGQGTMVTVSS VL: QSVLTQPPSVSAAPGQKVTISCSGSTSKIGQNSVSWYQQLPGTAPKLLIYENDRRPSGTPDRFSGSKSGTSATLAITGLQTGDEAEYYCETWDGSGGVFGTGTKVTVLG	> 50 µg/mL

// next item, neutralization IC50 requested
Sample CAP256-VRC26.08 (antibody, V domains shown) VH: EVQLVESGGGVVQPGRSLTLSCAASQFTFSNYGMHWVRQAPGKGLEWVASVSNDGTKKYHGDSVWGRFTISRDNSKNTLFLQMSSLRAEDTAVYFCVRDQREDECEEWWSDYYDFGRELPCRKFRGLGLAGIFDIWGHGTMVTVSS VL: QSALTQPPSVSAAPGQKVTISCSGNSSNIGNNFVSWYQQVPGTAPKLLLYETYRRPSGIPDRFSGSKSGTSATLAITGLQTGDEADYYCTVWGVRKGVGAVFGTGTKVTVLG ; neutralization IC50 observed: 0.256 µg/mL
